TARGET OR TEST SYSTEM: CB1 (Rattus norvegicus, UniProt P20272)
Sequence (P20272 whole entry): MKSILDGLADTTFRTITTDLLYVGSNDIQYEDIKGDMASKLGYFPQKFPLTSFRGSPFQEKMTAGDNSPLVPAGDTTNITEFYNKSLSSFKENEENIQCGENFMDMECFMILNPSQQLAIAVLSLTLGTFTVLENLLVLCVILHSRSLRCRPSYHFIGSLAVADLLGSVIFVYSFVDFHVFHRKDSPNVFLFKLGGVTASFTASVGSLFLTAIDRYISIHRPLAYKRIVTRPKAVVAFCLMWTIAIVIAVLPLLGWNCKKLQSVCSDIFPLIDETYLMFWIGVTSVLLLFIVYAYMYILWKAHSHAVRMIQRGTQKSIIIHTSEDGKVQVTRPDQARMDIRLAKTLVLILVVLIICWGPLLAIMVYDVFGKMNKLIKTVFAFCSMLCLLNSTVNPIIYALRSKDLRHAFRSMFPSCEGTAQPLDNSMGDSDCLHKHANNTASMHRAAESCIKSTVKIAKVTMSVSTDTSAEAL
ASSAY EXPLANATION: CB1 receptor binding affinity (Ki)
CONDITION SET: read-out: CB1 receptor Ki
MEASUREMENT TYPE: Ki
The number alone won't do; follow it with the unit.

Entry under review: C=C(C)[C@H]1CCC(COC(C)=O)=C[C@@H]1c1c(O)cc(C2(CCCCCC)SCCS2)cc1O [Compound 3.6] . Reported Ki?
326 nM

* * *

TARGET OR TEST SYSTEM: CB1 (Rattus norvegicus, UniProt P20272)
ASSAY EXPLANATION: CB1 receptor binding affinity (Ki)
Examples of molecules with documented pKi follow.
In plain terms, pKi is the concentration in mol/L turned into minus its base-10 logarithm.

Consider the reported pKi for these molecules:
Suppose we examine the molecule `CCCC/C=C\C1(c2cc(O)c([C@@H]3C=C(C)[C@@H]4C[C@H]3C4(C)C)c(O)c2)CCCC1` ; what pKi value has been reported?
7.35

Now consider `C=C(C)[C@H]1CCC(CO)=C[C@@H]1c1c(O)cc(C(C)(C)CCCCN2CCOCC2)cc1O` .
8.22

Next entry: `CC1=C[C@H](c2c(O)cc(C3(CCCCBr)CCC3)cc2O)[C@@H]2C[C@H]1C2(C)C`
7.96

Then `C=C(C)[C@@H]1CC[C@@H](N2CCOCC2)C[C@H]1c1c(O)cc(C(C)(C)CCCCCC)cc1O` ?
7.16

Here is the next molecule: `C=C(C)[C@@H]1CCC(=O)C[C@H]1c1c(O)cc(C23CC4CC(CC(C4)C2)C3)cc1O`
6.16

Continuing:
Returns the measured pKi for the input molecule. Input: `C=C(C)[C@H]1CCC(CO)=C[C@@H]1c1c(O)cc(C2(CCCCCBr)CCCC2)cc1O`
7.80

Also need `C=C(C)[C@@H]1CCC(COC(C)=O)=C[C@H]1c1c(O)cc(C(C)(C)CCCCCC)cc1O` , thanks.
6.66

Same question, `C=C(C)[C@H]1CCC(CO)=C[C@@H]1c1c(O)cc(C2(CCCCCC#N)CCC2)cc1O` this time
7.70

Subsequent entry: `CC(C)[C@H]1CC[C@@H](CO)C[C@H]1c1c(O)cc(C23CC4CC(CC(C4)C2)C3)cc1O`
6.00

// next record `C=C(C)[C@H]1CCC(COC(C)=O)=C[C@@H]1c1c(O)cc(C(C)(C)CCCCCC)cc1O`
7.16
